Listed below: inhibition of HAB1 (0.5 μM) phosphatase activity by 1 μM PYL3 mutant, without ABA values for each entry.
target: AD-HAB1 (169-511) (Arabidopsis thaliana) (UniProt Q9CAJ0)
Sequence (Q9CAJ0 whole entry): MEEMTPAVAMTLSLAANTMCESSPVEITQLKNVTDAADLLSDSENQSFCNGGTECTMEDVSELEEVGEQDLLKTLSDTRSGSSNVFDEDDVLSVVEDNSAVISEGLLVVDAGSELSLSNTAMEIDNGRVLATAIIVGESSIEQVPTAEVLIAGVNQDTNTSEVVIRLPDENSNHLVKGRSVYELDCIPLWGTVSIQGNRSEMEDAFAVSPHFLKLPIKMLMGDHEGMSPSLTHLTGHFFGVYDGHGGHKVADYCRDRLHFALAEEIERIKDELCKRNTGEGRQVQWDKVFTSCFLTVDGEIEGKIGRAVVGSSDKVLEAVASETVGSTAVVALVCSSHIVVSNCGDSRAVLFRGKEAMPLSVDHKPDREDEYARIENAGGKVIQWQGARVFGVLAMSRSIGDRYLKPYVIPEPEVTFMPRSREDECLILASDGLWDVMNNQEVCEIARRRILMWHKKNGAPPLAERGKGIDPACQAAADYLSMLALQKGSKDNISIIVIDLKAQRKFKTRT
Report the figure in % without appending any unit label.

Take a look at these entries with their results.
INSERT INTO results (binder, numeric_result) VALUES
  ('PYL3 V108K V107L L111F (receptor) MNLAPIHDPSSSSTTTTSSSTPYGLTKDEFSTLDSIIRTHHTFPRSPNTCTSLIAHRVDAPAHAIWRFVRDFANPNKYKHFIKSCTIRVNGNGIKEIKVGTIREVSLKSGFPASTSVEILEVLDEEKRILSFRVLGGEHRLNNYRSVTSVNEFVVLEKDKKKRVYSVVLESYIVDIPQGNTEEDTRMFVDTVVKSNLQNLAVISTASPT', 80),
  ('PYL3 V108K V107L (receptor) MNLAPIHDPSSSSTTTTSSSTPYGLTKDEFSTLDSIIRTHHTFPRSPNTCTSLIAHRVDAPAHAIWRFVRDFANPNKYKHFIKSCTIRVNGNGIKEIKVGTIREVSLKSGLPASTSVEILEVLDEEKRILSFRVLGGEHRLNNYRSVTSVNEFVVLEKDKKKRVYSVVLESYIVDIPQGNTEEDTRMFVDTVVKSNLQNLAVISTASPT', 25);

Now, please, on to the next binder.
Indicate the recorded inhibition of HAB1 (0.5 μM) phosphatase activity by 1 μM PYL3 mutant, without ABA value for this binder: BD-PYL3 V108K V107F V192F (receptor) MNLAPIHDPSSSSTTTTSSSTPYGLTKDEFSTLDSIIRTHHTFPRSPNTCTSLIAHRVDAPAHAIWRFVRDFANPNKYKHFIKSCTIRVNGNGIKEIKVGTIREVSFKSGLPASTSVEILEVLDEEKRILSFRVLGGEHRLNNYRSVTSVNEFVVLEKDKKKRVYSVVLESYIVDIPQGNTEEDTRMFVDTFVKSNLQNLAVISTASPT
90
